Below, each entry is listed alongside its reported MIC.
- Test system: Staphylococcus aureus
- method: Antibacterial activity against Staphylococcus aureus ATCC 29213 incubated for 16 to 18 hrs by broth dilution method
- Format: functional
- conditionLabel: time 16-18 hrs
assayMetric: MIC (µg/mL)

[
  {
    "recordSmiles": "C=CCc1cc(-c2ccc(OCCC[N+](C)(C)CC(=O)NCCCC)c(CC=C)c2)c2oc(-c3ccc(OC)cc3)nc2c1.[Br-]",
    "assayMetric": "MIC",
    "measuredResult": 8
  },
  {
    "recordSmiles": "C=CCc1cc(-c2ccc(OCCC[N+](C)(C)CC(=O)NCCCC)c(CC=C)c2)c2oc(-c3ccc(F)cc3)nc2c1.[Br-]",
    "assayMetric": "MIC",
    "measuredResult": 32
  },
  {
    "recordSmiles": "C=CCc1cc(-c2ccc(OCCC[N+](C)(C)CC(=O)NCCCC)c(CC=C)c2)c2oc(-c3ccc(C(F)(F)F)cc3)nc2c1.[Br-]",
    "assayMetric": "MIC",
    "measuredResult": 128
  }
]

----------
- Test system: Staphylococcus aureus
- method: Antibacterial activity against methicillin resistant Staphylococcus aureus M11 incubated for 16 to 18 hrs by broth dilution method
- Type: functional
- conditionLabel: time 16-18 hrs
assayMetric: log10 MIC (log10 of the value in µg/mL)

[
  {
    "recordSmiles": "C=CCc1cc(-c2ccc(OCCC[N+](C)(C)CC(=O)NCCCC)c(CC=C)c2)c2oc(-c3ccccc3Cl)nc2c1.[Br-]",
    "measuredResult": 2.11
  },
  {
    "recordSmiles": "C=CCc1cc(-c2ccc(OCCC[N+](C)(C)CC(=O)NCCCC)c(CC=C)c2)c2oc(-c3ccc(Cl)c(Cl)c3)nc2c1.[Br-]",
    "measuredResult": 1.81
  },
  {
    "recordSmiles": "C=CCc1cc(-c2ccc(OCCC[N+](C)(C)CC(=O)NCCCC)c(CC=C)c2)c2oc(-c3c(Cl)cccc3Cl)nc2c1.[Br-]",
    "measuredResult": 0.60
  },
  {
    "recordSmiles": "C=CCc1cc(-c2ccc(OCCC[N+](C)(C)CC(=O)NCCCC)c(CC=C)c2)c2oc(-c3ccc(Cl)cc3Br)nc2c1.[Br-]",
    "measuredResult": 2.11
  },
  {
    "recordSmiles": "C=CCc1cc(-c2ccc(OCCC[N+](C)(C)CC(=O)NCCCC)c(CC=C)c2)c2oc(-c3ccc(Cl)cc3)nc2c1.[Br-]",
    "measuredResult": 0.60
  },
  {
    "recordSmiles": "C=CCc1cc(-c2ccc(OCCC[N+](C)(C)CC(=O)NCCCC)c(CC=C)c2)c2oc(-c3ccccc3F)nc2c1.[Br-]",
    "measuredResult": 0.60
  },
  {
    "recordSmiles": "C=CCc1cc(-c2ccc(OCCC[N+](C)(C)CC(=O)NCCCC)c(CC=C)c2)c2oc(-c3ccc(Cl)cc3Cl)nc2c1.[Br-]",
    "measuredResult": 1.81
  },
  {
    "recordSmiles": "C=CCc1cc(-c2ccc(OCCC[N+](C)(C)CC(=O)NCCCC)c(CC=C)c2)c2oc(-c3ccc(OC)cc3)nc2c1.[Br-]",
    "measuredResult": 0.30
  },
  {
    "recordSmiles": "C=CCc1cc(-c2ccc(OCCC[N+](C)(C)CC(=O)NCCCC)c(CC=C)c2)c2oc(-c3cccc(Cl)c3Cl)nc2c1.[Br-]",
    "measuredResult": 1.20
  },
  {
    "recordSmiles": "C=CCc1cc(-c2ccc(OCCC[N+](C)(C)CC(=O)NCCCC)c(CC=C)c2)c2oc(-c3cccc(Br)c3)nc2c1.[Br-]",
    "measuredResult": 0.90
  },
  {
    "recordSmiles": "C=CCc1cc(-c2ccc(OCCC[N+](C)(C)CC(=O)NCCCC)c(CC=C)c2)c2oc(-c3ccc(F)cc3)nc2c1.[Br-]",
    "measuredResult": 1.20
  }
]
